This collection of values is drawn from paper PMC4624771.

# Tested on: LAT-1
# Measurement Protocol: Peptide-stimulated cAMP accumulation assay, lat-1-transfected COS-7 cells
# Assay type: cell-based, C. elegans
# Recorded Conditions: lat-1-transfected COS-7 cells, 1 mM peptide, cAMP accumulation assay
Value Kind: agonistic activity at LAT-1 in vitro (cAMP levels), in words

Substance: CP12: peptide of 12 amino acids comprising the LAT-1 sequence C-terminal of the GPS cleavage site (THFAVLMDVRGH)
Observed Result: increased cAMP levels

Substance: CP13: peptide of 13 amino acids comprising the LAT-1 sequence C-terminal of the GPS cleavage site (THFAVLMDVRGHD)
Observed Result: increased cAMP levels
